- method: Ionisation constant (pKa2) due to […]
- Type: physicochemical
- conditionLabel: read-out: pKa2
Quick list: pKa per entry.
endpointLabel: pKa

>>> recordedvalue("CC(/N=C(/S)Nc1cccnc1)C(C)(C)C (centres undefined)")
13.2
>>> recordedvalue("CC(C)(C)C/C(=N/c1cccnc1)NC#N")
11.3
>>> recordedvalue("CC(/N=C(/NC#N)Nc1cccnc1)C(C)(C)C (centres undefined)")
12

###

Measured Log IC50 values are reported for all entries that follow.
- Organism: Rattus norvegicus
- method: Concentration required to cause 50% inhibition of spontaneous activity in rat portal vein
- Type: functional
endpointLabel: Log IC50

>>> recordedvalue("C[C@@H](N/C(=C\\[N+](=O)[O-])Nc1cccnc1)C(C)(C)C")
-6
>>> recordedvalue("CC(/N=C(/NC#N)Nc1cccnc1)C(C)(C)C (single isomer, unassigned)")
-5.2
>>> recordedvalue("CC(N/C(=C\\[N+](=O)[O-])Nc1cccnc1)C(C)(C)C (single isomer, unassigned)")
-8
>>> recordedvalue("C[C@@H](/N=C(/NC#N)Nc1cccnc1)C(C)(C)C")
-7

###

- Organism: Rattus norvegicus
- method: Concentration required to cause 15% increase in [86Rb+] efflux from rat portal vein.
- Assay type: functional
endpointLabel: pEC15

>>> recordedvalue("CC(C)(C)/N=C(/NC#N)Nc1cccnc1")
6.1
>>> recordedvalue("CC(/N=C(/NC#N)Nc1cccnc1)C(C)(C)C (stereo unspecified)")
6.3
>>> recordedvalue("COc1cncc(N/C(=C/[N+](=O)[O-])N[C@@H](C)C(C)(C)C)c1")
6.5
>>> recordedvalue("C[C@H](/N=C(/S)Nc1ccncc1)C(C)(C)C.Cl")
4
>>> recordedvalue("CC(C)(C)/N=C(\\Cc1cccnc1)NC#N")
3.5
>>> recordedvalue("C[C@@H](N/C(=C\\[N+](=O)[O-])Nc1cccnc1)C(C)(C)C")
3.8
>>> recordedvalue("CC(N/C(=C\\[N+](=O)[O-])Nc1cccnc1)C(C)(C)C (single isomer, unassigned)")
5.8
>>> recordedvalue("C[C@H](N/C(=N/c1ccncc1)NC#N)C(C)(C)C")
4.4
>>> recordedvalue("CC(C)(C)C/N=C(/NC#N)Nc1cccnc1")
5.5
>>> recordedvalue("CC(N/C(=N\\C#N)Nc1ccncc1)C(C)(C)C (stereo unspecified) [PINACIDIL ANHYDROUS]")
5.7
>>> recordedvalue("CC(/N=C(/S)Nc1cccnc1)C(C)(C)C (stereo unspecified)")
5.7
>>> recordedvalue("CCC(C)(C)/N=C(\\NC#N)Nc1cccnc1")
7.4
>>> recordedvalue("CC(C)(C)C/C(=N/c1cccnc1)NC#N")
4.3
>>> recordedvalue("CCC(C)(C)/N=C(/S)Nc1cccnc1")
5.2
>>> recordedvalue("CC(C)(C)CCN/C(=C\\[N+](=O)[O-])Nc1cccnc1")
3.5
>>> recordedvalue("CC(C)(C)CN/C(=C\\[N+](=O)[O-])Nc1cccnc1")
4
>>> recordedvalue("CC(N/C(=C\\[N+](=O)[O-])Nc1ccncc1)C(C)(C)C (stereo unspecified)")
3.3
>>> recordedvalue("C[C@@H](/N=C(/S)Nc1ccncc1)C(C)(C)C.Cl")
4
>>> recordedvalue("CC(C)(C)C/N=C(/S)Nc1cccnc1")
5
>>> recordedvalue("COc1cncc(N/C(=C/[N+](=O)[O-])N[C@H](C)C(C)(C)C)c1")
4
>>> recordedvalue("CC(C)(C)CNC(=O)Nc1ccncc1.Cl")
3.3
>>> recordedvalue("CC(N/C(=C\\[N+](=O)[O-])Nc1cccc(C#N)c1)C(C)(C)C (stereo unspecified)")
4
>>> recordedvalue("O=[N+]([O-])/C=C(/Nc1cccnc1)NC1CCCCC1")
3.5
>>> recordedvalue("CC(C)(C)CNC(=O)Nc1cccnc1")
4
>>> recordedvalue("CC(N/C(=C\\[N+](=O)[O-])Nc1cccnc1)C(C)(C)C (stereo unspecified)")
5.5
>>> recordedvalue("C[C@@H](N/C(=N/c1ccncc1)NC#N)C(C)(C)C")
5.9
